Cited source: patent US6743795B1

system: HBV polymerase (Hepatitis B virus genotype A2 subtype adw2)
Construct: made in house; host or cells: E. coli
procedure_details: In vitro reverse transcription activity of HBV polymerase (ELISA-type, DIG/biotin nucleotides)
Type: biochemical
condition_label: 0.1 μg/ml test compound; read-out: Inhibition activity on HBV-RT (%)
experimental_endpoint: inhibition at 0.1 µg/mL (%)
Numbers only, in %.

Solved entries (count: 3):
O=[N+]([O-])c1ccc(N2CCC(O)CC2)nc1Nc1ccc2[nH]ncc2c1 [Example 28]
34
CN(C)CCNc1ccc([N+](=O)[O-])c(Nc2ccc3cn[nH]c3c2)n1 [Example 16]
55
O=[N+]([O-])c1ccc(NCc2cccnc2)nc1Nc1ccc2[nH]ncc2c1 [Example 19]
58

Provide inhibition at 0.1 µg/mL for all items below, preserving their order.
1. C[C@@H](CCO)Nc1ccc([N+](=O)[O-])c(Nc2ccc3[nH]ncc3c2)n1 [Example 12]
2. O=[N+]([O-])c1ccc(NCc2cccnc2)nc1Nc1ccc2cn[nH]c2c1 [Example 20]
3. Nc1ccc([N+](=O)[O-])c(Nc2ccc3[nH]ncc3c2)n1 [Example 9]

56
40
59

###

system: HBV polymerase (Hepatitis B virus genotype A2 subtype adw2)
Construct: made in house; host or cells: E. coli
procedure_details: In vitro reverse transcription activity of HBV polymerase (ELISA-type, DIG/biotin nucleotides)
Format: biochemical
condition_label: 1 μg/ml test compound; read-out: Inhibition activity on HBV-RT (%)
experimental_endpoint: inhibition at 1 µg/mL (%)
Answers are plain numbers, in %.

Nc1ccc([N+](=O)[O-])c(Nc2ccc3[nH]ncc3c2)n1
80
O=[N+]([O-])c1ccc(N2CCNCC2)nc1Nc1ccc2[nH]ncc2c1
96

Provide inhibition at 1 µg/mL for all items below, preserving their order.
1. C[C@@H](CCO)Nc1ccc([N+](=O)[O-])c(Nc2ccc3cn[nH]c3c2)n1
2. O=[N+]([O-])c1ccc(NN2CCOCC2)nc1Nc1ccc2[nH]ncc2c1
3. O=[N+]([O-])c1ccc(N2CCN(CCO)CC2)nc1Nc1ccc2cn[nH]c2c1
4. O=[N+]([O-])c1ccc(N2CCC(O)CC2)nc1Nc1ccc2cn[nH]c2c1
5. C[C@@H](CCO)Nc1ccc([N+](=O)[O-])c(Nc2ccc3[nH]ncc3c2)n1
6. O=[N+]([O-])c1ccc(N2CCC(O)CC2)nc1Nc1ccc2[nH]ncc2c1

66
71
60
52
90
55

###

system: HBV polymerase (Hepatitis B virus genotype A2 subtype adw2, UniProt P03159)
Construct: made in house; host or cells: E. coli
Sequence (P03159 whole entry): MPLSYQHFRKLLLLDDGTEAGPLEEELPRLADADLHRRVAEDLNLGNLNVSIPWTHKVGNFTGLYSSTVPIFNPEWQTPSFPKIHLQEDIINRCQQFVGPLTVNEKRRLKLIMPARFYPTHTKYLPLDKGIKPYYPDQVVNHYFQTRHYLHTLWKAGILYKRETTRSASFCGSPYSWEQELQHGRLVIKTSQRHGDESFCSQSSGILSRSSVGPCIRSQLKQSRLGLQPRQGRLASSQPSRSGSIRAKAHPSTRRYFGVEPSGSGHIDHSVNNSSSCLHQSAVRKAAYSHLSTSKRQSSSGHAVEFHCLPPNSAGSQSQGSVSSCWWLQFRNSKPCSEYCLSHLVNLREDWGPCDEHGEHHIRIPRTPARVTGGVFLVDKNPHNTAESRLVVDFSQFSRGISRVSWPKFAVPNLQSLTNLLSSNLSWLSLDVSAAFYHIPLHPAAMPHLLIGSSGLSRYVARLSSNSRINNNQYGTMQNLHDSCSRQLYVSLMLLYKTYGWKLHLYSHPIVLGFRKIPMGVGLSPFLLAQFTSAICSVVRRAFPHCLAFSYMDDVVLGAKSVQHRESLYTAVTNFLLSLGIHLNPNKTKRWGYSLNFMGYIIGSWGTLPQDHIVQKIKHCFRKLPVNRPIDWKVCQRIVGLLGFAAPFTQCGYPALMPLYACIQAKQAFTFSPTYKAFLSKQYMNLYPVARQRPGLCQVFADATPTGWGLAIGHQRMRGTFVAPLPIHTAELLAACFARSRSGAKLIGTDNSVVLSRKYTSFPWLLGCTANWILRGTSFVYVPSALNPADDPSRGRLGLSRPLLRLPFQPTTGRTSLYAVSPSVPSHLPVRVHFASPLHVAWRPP
procedure_details: In vitro reverse transcription activity of HBV polymerase (ELISA-type, DIG/biotin nucleotides)
Assay type: biochemical
condition_label: 0.1 μg/ml test compound
experimental_endpoint: Inhibition activity on HBV-RT (%)
Answers are plain numbers, in %.

Solved entries (count: 5):
CC(C)CNc1ccc([N+](=O)[O-])c(Nc2ccc3[nH]ncc3c2)n1 [Example 7]
80
COCC(C)Nc1ccc([N+](=O)[O-])c(Nc2ccc3[nH]ncc3c2)n1 (stereo not drawn) [Example 15]
68
CNc1ccc([N+](=O)[O-])c(Nc2ccc3[nH]ncc3c2)n1 [Example 3]
47
CC(C)Nc1ccc([N+](=O)[O-])c(Nc2ccc3cn[nH]c3c2)n1 [Example 6]
76
CC(C)Nc1ccc([N+](=O)[O-])c(Nc2ccc3[nH]ncc3c2)n1 [Example 5]
87

Now for a further compound.
Value lookup for Inhibition activity on HBV-RT (%); key = CNc1ccc([N+](=O)[O-])c(Nc2ccc3cn[nH]c3c2)n1 [Example 4]
51
